Tested on: LOX IMVI
assay procedure: NCI tumour cell line growth inhibition, 48 h
Active and inactive are the calls of the source. Cut-off read from the data, not from the text of the source: active = GI50 up to about 1.1 µM and inactive = higher.
readout type: GI50

Look over these answered cases.
molecule	result
COc1ccc(NS(=O)(=O)c2ccc(/N=C3\C=C(Nc4ccc(S(=O)(=O)Nc5ccc(OC)nn5)cc4)C(=O)c4ccccc43)cc2)nn1	16.7 µM (inactive)
NS(=O)(=O)c1cc2c(cc1Cl)NC(C(=O)c1cc(=O)c3ccc(O)cc3o1)=NS2(=O)=O	> 100 µM (inactive)
C=CCN(N=O)C(=O)NCCCC(NC(C)=O)C(=O)NCc1ccccc1 (centres undefined)	> 100 µM (inactive)
Oc1c2cccc1Cc1cccc3c1OCCOCCOCCOCCOc1c(cccc1Cc1cccc(c1O)C3)C2	> 100 µM (inactive)

query: Request: GI50, test system LOX IMVI, entry O=C1CNNC(CSc2nc3ccc(I)cc3c(=O)n2Cc2ccccc2)=N1
result: 18.2 µM (inactive)

query: Request: GI50, test system LOX IMVI, entry C=C(C)[C@@]1(O)CCCC[C@@H]1CC(Sc1ccccc1)Sc1ccccc1
result: 14.6 µM (inactive)

query: Request: GI50, test system LOX IMVI, entry O=C(N/N=C/C=C/c1ccccc1)[C@H](O)[C@@H](O)C(=O)N/N=C/C=C/c1ccccc1
result: > 100 µM (inactive)

query: Request: GI50, test system LOX IMVI, entry COc1ccc2nc3cc([N+](=O)[O-])ccc3c(Nc3ccc(S(=O)(=O)N=C(N)N)cc3)c2c1
result: 28.4 µM (inactive)

query: Request: GI50, test system LOX IMVI, entry O=c1c2nc3ccccc3c(=O)n2ncn1-c1ccccc1Cl
result: > 100 µM (inactive)
